# credit: PubChem BioAssay (NCI)

Item-by-item account of growth
test system: OVCAR-5 ovarian; assay: NCI-60 one-dose screen, 48 h (100 = growth as untreated, 0 = no growth, -100 = all killed); conditions: 10 µM unless noted
The panel holds about 83,000 compounds, 20% with a hit somewhere; the sample as a whole holds those more often. Calls of active or inactive are those of the source. The calls were made as follows: active = growth percent below 10; inactive = the rest.
Measured endpoint: growth

# Compound, Result
data = [
    ("c1ccc(-c2nc3ccccc3s2)cc1", "84.1% (inactive)"),
    ("CCCCCCCCCCCCCCCc1ccc(N)c(OC2OC(CO)C(O)C(O)C2O)c1 (configuration not stated)", "65.8% (inactive)"),
    ("NC(=O)NCCCC(N)C(=O)O (configuration not stated)", "113% (inactive)"),
    ("COc1ccc(Nc2ccc3ccccc3c2)cc1", "97.4% (inactive)"),
    ("N#CC(C#N)N=Nc1ccc(Cl)cc1", "72.6% (inactive)"),
    ("O=C(/C=C/c1ccccc1)c1ccccc1", "98.4% (inactive)"),
    ("CCCCCCCCCCNC(=O)CI", "95.8% (inactive)"),
]

* * *

Item-by-item account of growth
Test system: SN12C renal
Experiment: NCI-60 one-dose screen, 48 h (100 = growth as untreated, 0 = no growth, -100 = all killed)
Conditions: 10 µM unless noted
Procedure: Growth inhibition of the SN12C human tumor cell line is measured as a screen for anti-cancer activity. Cells are grown in 96 well plates and exposed to the test compound for 48 hours. Compounds are tested at a single concentration, which is 10^-5 M for most compounds. The reported endpoint is percent growth (GI% or GIPRCNT), where numbers from 0 - 100% represent growth inhibition, and numbers from -100% - 0 represent cell death. For example, a value of 40 represents 60% growth inhibition. […]
The panel holds about 83,000 compounds, 20% with a hit somewhere; the sample as a whole holds those more often.
Measured endpoint: growth (%)

# Molecule, Assayed system, Quantitative readout
data = [
    ("COc1ccc2cc1Oc1ccc(cc1)C[C@H]1c3cc(c(OC)cc3CCN1C)Oc1c(OC)c(OC)cc3c1[C@H](C2)N(C)CC3", "SN12C renal", 82.2),
    ("COc1ccc(N/C=C/C2=[N+](C)c3ccccc3C2(C)C)c(OC)c1", "SN12C renal", 96.6),
    ("CC(C)C(C)(C)c1ccc(O)cc1", "SN12C renal", 102),
    ("CC(C)(O)C(=O)O", "SN12C renal", 102),
    ("Cc1cc(-c2ccc(N=Nc3ccc4c(S(=O)(=O)O)cc(S(=O)(=O)O)c(N)c4c3O)c(C)c2)ccc1N=Nc1ccc2c(S(=O)(=O)O)cc(S(=O)(=O)O)c(N)c2c1O", "SN12C renal", 99.1),
    ("N#CC(C#N)N=Nc1cc(Cl)ccc1Cl", "SN12C renal", 103),
    ("O=CN1CCCCC1", "SN12C renal", 104),
    ("Nc1nc(N)c2[nH]cnc2n1", "SN12C renal", 102),
    ("CCCCCCCCCCNC(=O)CI", "SN12C renal", 33.9),
    ("COc1ccc(Nc2ccc3ccccc3c2)cc1", "SN12C renal", 76.9),
    ("Nc1cc(N)c(N)cc1N", "SN12C renal", -69.7),
    ("Nc1ncnc2c1ncn2C1OC(COP(=O)(O)O)C(O)C1O (configuration not stated)", "SN12C renal", 99.9),
]

* * *

tested on: SK-MEL-2 melanoma; test: NCI-60 one-dose screen, 48 h (100 = growth as untreated, 0 = no growth, -100 = all killed); details: 10 µM unless noted
About 83,000 compounds went through this panel and 20% of them were active in at least one assay; those are over-represented in the sample as a whole.
Measured endpoint: growth (%)

# Compound, Value units, Quantitative readout
data = [
    ("O=C1CSC2=NCCN12", "%", 89),
    ("c1ccc(CNCCNCc2ccccc2)cc1", "%", 102),
    ("O=C(O)CCCl", "%", 123),
    ("COc1cc(C(O)C2C(=O)OCC2C2(c3ccc4c(c3)OCO4)SCCCS2)cc(OC)c1OC (configuration not stated)", "%", 95.6),
    ("O=[N+]([O-])c1cccc(SSc2cccc([N+](=O)[O-])c2)c1", "%", 98.5),
    ("COc1ccc(C(=O)CC(c2ccccc2)C(C#N)c2ccccc2)cc1 (configuration not stated)", "%", 71.6),
    ("C#CCOC(=O)Nc1ccccc1", "%", 109),
]

* * *

system: HOP-92 NSCLC; experiment: NCI-60 one-dose screen, 48 h; conditions: 10 µM
Compounds without any hit were thinned out: in the full panel of roughly 83,000, 20% have a hit. The source made the active and inactive calls. How the source made its calls: active means growth percent below 10; inactive means the rest.
Possible outcomes: T = active, F = inactive

# Compound, Discrete label
data = [
    ("CN(C)CC1CCCCCC(CN(C)C)C1=O (stereo not given)", "F"),
    ("Nc1ncnc2c1ncn2C1OC(COP(=O)(O)O)C(O)C1O (stereo not given)", "F"),
    ("CCCCOc1ccc(Nc2cc(Cl)ccc2C(=O)O)cn1", "F"),
    ("CCc1cc(C)cc(O)c1", "F"),
    ("Cc1cc(-c2cc(C)c(O)c(C)c2)cc(C)c1O", "F"),
    ("O=C1c2c(O)ccc(O)c2C(=O)c2c(NCCNCCO)ccc(NCCNCCO)c21", "T"),
    ("N#CC(C#N)N=Nc1ccc(Cl)cc1", "T"),
    ("c1ccc(-c2nc3ccccc3s2)cc1", "F"),
    ("Oc1ccc(Cc2ccccc2Cl)c(O)c1", "F"),
    ("CCCCNc1ccc(Nc2ccccc2)cc1", "F"),
    ("CCCCCCCCCCCCCCCc1ccc(N)c(OC2OC(CO)C(O)C(O)C2O)c1 (stereo not given)", "F"),
    ("Cc1cc(-c2ccc(N=Nc3ccc4c(S(=O)(=O)O)cc(S(=O)(=O)O)c(N)c4c3O)c(C)c2)ccc1N=Nc1ccc2c(S(=O)(=O)O)cc(S(=O)(=O)O)c(N)c2c1O", "F"),
    ("CC1CCC2(OC1)OC1CC3C4CC=C5CC(O)CCC5(C)C4CCC3(C)C1C2C (stereo not given)", "F"),
    ("CC(=O)Nc1ccc(S(N)(=O)=O)cc1", "F"),
    ("OCCN1CCCCCCC1", "F"),
    ("COc1ccc(C(=O)CC(c2ccccc2)C(C#N)c2ccccc2)cc1 (stereo not given)", "F"),
    ("O=c1n(CC2CO2)c(=O)n(CC2CO2)c(=O)n1CC1CO1 (stereo not given)", "F"),
    ("CCOC(=O)c1c(C)cc(=O)oc1C", "F"),
    ("Brc1ccc(SSc2ccc(Br)cc2)cc1", "F"),
    ("O=CN1CCCCC1", "F"),
]

* * *

Item-by-item account of growth
test system: U251 CNS; assay: NCI-60 one-dose screen, 48 h (100 = growth as untreated, 0 = no growth, -100 = all killed); conditions: 10 µM unless noted
About 83,000 compounds went through this panel and 20% of them were active in at least one assay; those are over-represented in the sample as a whole.

# Compound, Value units, growth
measured = [
    ("Fc1ccc([I+]c2ccc(F)cc2)cc1", "%", 66.4),
    ("Nc1ncnc2c1ncn2C1OC(COP(=O)(O)O)C(O)C1O (centres undefined)", "%", 112),
    ("N#CC(C#N)N=Nc1ccc(Cl)cc1", "%", 88.7),
    ("CCc1cc(C)cc(O)c1", "%", 96),
    ("O=C1OC(c2ccccc2)=N/C1=C\\c1ccccc1", "%", 91),
    ("Cl", "%", 102),
    ("c1ccc(CNCCNCc2ccccc2)cc1", "%", 96),
    ("Cn1cnc([N+](=O)[O-])c1Sc1ncn[nH]1", "%", 108),
    ("N#CC(C#N)N=Nc1cc(Cl)ccc1Cl", "%", 96.6),
    ("CN(C)CC1CCCCCC(CN(C)C)C1=O (centres undefined)", "%", 89),
    ("OCC1OC(O)C(O)C(O)C1O (centres undefined)", "%", 113),
    ("Cc1cc(-c2cc(C)c(O)c(C)c2)cc(C)c1O", "%", 88.6),
    ("Nc1ccc2c(O)cc(S(=O)(=O)O)cc2c1", "%", 101),
    ("CC1CCC2(OC1)OC1CC3C4CC=C5CC(O)CCC5(C)C4CCC3(C)C1C2C (centres undefined)", "%", 94.8),
    ("CC(C)NC(=O)N/C=C(\\C#N)C(N)=O", "%", 114),
    ("O=C1C=C(Nc2ccccc2)c2ccccc2C1=O", "%", 96.6),
    ("Oc1ccc(Cc2ccccc2Cl)c(O)c1", "%", 96.2),
    ("CC(C)C(C)(C)c1ccc(O)cc1", "%", 102),
    ("O=C(Cc1ccccc1)c1ccc(O)c(Cl)c1", "%", 73),
]
